Values were extracted from ChEMBL document CHEMBL6121054.

biological target: DNA gyrase (Staphylococcus aureus, UniProt P0A0K8+P20831); experiment: Inhibition of Staphylococcus aureus gyrase
Sequence (P0A0K8 whole entry): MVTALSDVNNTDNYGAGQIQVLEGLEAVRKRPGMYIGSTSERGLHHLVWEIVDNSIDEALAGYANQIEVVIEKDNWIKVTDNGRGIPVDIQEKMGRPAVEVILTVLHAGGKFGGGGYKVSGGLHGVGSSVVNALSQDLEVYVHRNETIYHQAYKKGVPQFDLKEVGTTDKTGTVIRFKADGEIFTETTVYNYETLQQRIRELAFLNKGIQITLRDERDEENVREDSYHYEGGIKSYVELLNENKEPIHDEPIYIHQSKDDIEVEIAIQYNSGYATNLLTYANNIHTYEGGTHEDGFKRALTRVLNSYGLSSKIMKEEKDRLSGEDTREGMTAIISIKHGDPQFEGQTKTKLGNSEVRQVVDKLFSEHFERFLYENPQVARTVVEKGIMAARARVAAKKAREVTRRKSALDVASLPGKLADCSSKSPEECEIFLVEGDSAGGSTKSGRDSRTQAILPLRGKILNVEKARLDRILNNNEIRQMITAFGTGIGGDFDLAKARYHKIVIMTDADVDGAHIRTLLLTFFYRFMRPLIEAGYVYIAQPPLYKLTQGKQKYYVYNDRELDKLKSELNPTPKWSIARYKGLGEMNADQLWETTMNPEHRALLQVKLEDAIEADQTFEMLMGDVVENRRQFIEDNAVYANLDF
Sequence (P20831 whole entry): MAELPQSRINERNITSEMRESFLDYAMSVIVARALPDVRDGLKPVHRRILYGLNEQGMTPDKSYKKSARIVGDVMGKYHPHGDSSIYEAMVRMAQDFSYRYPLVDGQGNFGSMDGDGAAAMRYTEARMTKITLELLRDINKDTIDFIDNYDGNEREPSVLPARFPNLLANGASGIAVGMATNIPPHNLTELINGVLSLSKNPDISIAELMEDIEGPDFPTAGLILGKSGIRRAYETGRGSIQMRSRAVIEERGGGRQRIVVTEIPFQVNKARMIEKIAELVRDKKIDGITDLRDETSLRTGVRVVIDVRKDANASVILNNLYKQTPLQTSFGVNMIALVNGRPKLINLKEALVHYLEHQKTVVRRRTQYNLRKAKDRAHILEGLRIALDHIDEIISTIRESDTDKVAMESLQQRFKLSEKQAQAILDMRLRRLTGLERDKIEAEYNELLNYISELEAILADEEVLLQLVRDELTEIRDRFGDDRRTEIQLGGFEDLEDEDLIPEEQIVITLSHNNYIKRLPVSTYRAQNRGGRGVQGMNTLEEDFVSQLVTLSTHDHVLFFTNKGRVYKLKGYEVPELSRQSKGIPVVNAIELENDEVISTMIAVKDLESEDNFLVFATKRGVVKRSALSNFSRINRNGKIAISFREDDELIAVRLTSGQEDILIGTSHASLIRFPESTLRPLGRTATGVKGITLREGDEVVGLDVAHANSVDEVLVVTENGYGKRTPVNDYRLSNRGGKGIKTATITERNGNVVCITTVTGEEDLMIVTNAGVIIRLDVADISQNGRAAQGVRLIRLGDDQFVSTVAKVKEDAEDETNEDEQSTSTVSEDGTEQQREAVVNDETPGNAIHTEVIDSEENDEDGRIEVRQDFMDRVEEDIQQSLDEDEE
ASSAY_READOUT: pIC50
# log scale: pIC50 equals minus log10 of the concentration in mol/L

## Input Name the recorded pIC50 for CCn1c(=O)c(C(=O)Nc2nnc(-c3ccc(C)cn3)s2)c(O)c2ccccc21 .
## Output 5.92

---

# log10 MIC values compiled below
system: Staphylococcus aureus; experiment: Antibacterial activity against Staphylococcus aureus USA300 incubated for 16 to 24 hrs by broth microdilution method; assay type: functional; details: time 16-24 hrs
// stored as log10 of MIC expressed in µg/mL

Recorded results for 2 molecules are shown here.
• CCn1c(=O)c(C(=O)Nc2nnc(-c3ccc(C)cn3)s2)c(O)c2ccccc21 = -1.40
• CN(C)c1cc(NC(=O)CNC(C)(C)C)c(O)c2c1C[C@H]1C[C@H]3[C@H](N(C)C)C(O)=C(C(N)=O)C(=O)[C@@]3(O)C(O)=C1C2=O [TIGECYCLINE] = -0.80

## Input # returns recorded log10 MIC (system: Staphylococcus aureus) for CN[C@H](CC(C)C)C(=O)N[C@H]1C(=O)N[C@@H](CC(N)=O)C(=O)N[C@H]2C(=O)N[C@H]3C(=O)N[C@H](C(=O)N[C@H](C(=O)O)c4cc(O)cc(O)c4-c4cc3ccc4O)[C@H](O)c3ccc(c(Cl)c3)Oc3cc2cc(c3O[C@@H]2O[C@H](CO)[C@@H](O)[C@H](O)[C@H]2O[C@H]2C[C@](C)(N)[C@H](O)[C@H](C)O2)Oc2ccc(cc2Cl)[C@H]1O [VANCOMYCIN]
## Output 0.37

## Input # returns recorded log10 MIC (system: Staphylococcus aureus) for CCn1c(=O)c(C(=O)Nc2nnc(-c3ccc(F)cn3)s2)c(O)c2ccccc21
## Output -0.34

## Input # returns recorded log10 MIC (system: Staphylococcus aureus) for CCn1c(=O)c(C(=O)Nc2nnc(-c3ncccc3F)s2)c(O)c2ccccc21
## Output -0.96

## Input # returns recorded log10 MIC (system: Staphylococcus aureus) for CCn1c(=O)c(C(=O)Nc2nnc(-c3ccc(C(F)(F)F)cn3)s2)c(O)c2ccccc21
## Output 0.67

## Input # returns recorded log10 MIC (system: Staphylococcus aureus) for CC1(C)S[C@H]([C@H](NC(=O)Cc2ccccc2)C(=O)NCc2ccccc2)N[C@H]1C(=O)N[C@H](Cc1ccccc1)[C@H](O)CC(=O)NCc1nc2ccccc2[nH]1
## Output -0.20

---

# MIC values compiled below
test system: Staphylococcus aureus; assay: Antibacterial activity against Staphylococcus aureus ATCC 25923 incubated for 16 to 24 hrs by broth microdilution method; assay type: functional; conditions: time 16-24 hrs
Dear colleague, please return just the value in µg/mL, with no unit written.

* CCn1c(=O)c(C(=O)Nc2nnc(-c3ccc(C)cn3)s2)c(O)c2ccccc21 | 0.03

Okay, next one:
## Input Name the recorded MIC for CCn1c(=O)c(C(=O)Nc2nnc(-c3ncccc3F)s2)c(O)c2ccccc21 .
## Output 0.15

---

system: Staphylococcus aureus; test: Antibacterial activity against Staphylococcus aureus ATCC 25923 incubated for 16 to 24 hrs by broth microdilution method; type: functional; conditions: time 16-24 hrs
ASSAY_READOUT: MIC (µg/mL)
Dear colleague, please return just the value in µg/mL, with no unit written.

• CC1(C)S[C@H]([C@H](NC(=O)Cc2ccccc2)C(=O)NCc2ccccc2)N[C@H]1C(=O)N[C@H](Cc1ccccc1)[C@H](O)CC(=O)NCc1nc2ccccc2[nH]1 = 0.63

Okay, next one:
## Input Name the recorded MIC for CN[C@H](CC(C)C)C(=O)N[C@H]1C(=O)N[C@@H](CC(N)=O)C(=O)N[C@H]2C(=O)N[C@H]3C(=O)N[C@H](C(=O)N[C@H](C(=O)O)c4cc(O)cc(O)c4-c4cc3ccc4O)[C@H](O)c3ccc(c(Cl)c3)Oc3cc2cc(c3O[C@@H]2O[C@H](CO)[C@@H](O)[C@H](O)[C@H]2O[C@H]2C[C@](C)(N)[C@H](O)[C@H](C)O2)Oc2ccc(cc2Cl)[C@H]1O [VANCOMYCIN] .
## Output 2.67
